Taken from patent US20140171431A1.

# Measured Target: Lp-PLA2 in rabbit serum (Oryctolagus cuniculus, UniProt G1SE06)
# Construct: from tissue; host or cells: rabbit serum
# Protocol Text: In vitro inhibitory activity towards the enzyme Lp-PLA2 in rabbit serum, [3H]PAF substrate
# Type: biochemical
# Conditions: 100 nM; rabbit serum; read-out: inhibition, %
# Experimental: The activities of compounds were measured using [^3H] labeled platelet activating factor ([^3H]PAF, Perkinelmer, Lot NET910) as the substrate. The reaction was carried out in a system containing 50 mmol/L HEPES and 150 mmol/L NaCl (pH 7.4) in a total volume of 200 μl. […] A 100 μl portion of the supernatant was then collected for radioactivity intensity measurement. The inhibition rate was determined by the following equation: […] (Note: DPM is radioactivity intensity unit.)
Record 1.0 whenever inhibition at 0.1 µM is at 90% or higher; record 0.0 when lower.

CCN(CC)CCNC(C)c1nnc(Cn2c(SCc3ccc(F)cc3)nc(=O)c3c2CCC3)n1Cc1ccc(-c2ccc(C(F)(F)F)cc2)cc1 (stereo not drawn)
1.0

**Q:** Given `Cc1cnc(Cn2c(SCc3ccc(F)cc3)nc(=O)c3c2CCC3)n1Cc1ccc(-c2ccc(C(F)(F)F)cc2)cc1` , state whether its inhibition at 0.1 µM is at least 90%.
**A:** 0.0

**Q:** Another: `CNC(=S)NCc1nnc(Cn2c(SCc3ccc(F)cc3)nc(=O)c3c2CCC3)n1Cc1ccc(-c2ccc(C(F)(F)F)cc2)cc1`
**A:** 0.0

**Q:** Next entry: `C[N+](C)(Cc1ccc(F)cc1)Cc1cnc(Cn2c(SCc3ccc(F)cc3)nc(=O)c3c2CCC3)n1Cc1ccc(-c2ccc(C(F)(F)F)cc2)cc1`
**A:** 1.0

* * *

Listed next: entries and their corresponding inhibition at 0.01 µM.
# Measured Target: Lp-PLA2 in human serum (Homo sapiens, UniProt Q13093)
# Construct: from tissue
# Sequence (Q13093 22-441): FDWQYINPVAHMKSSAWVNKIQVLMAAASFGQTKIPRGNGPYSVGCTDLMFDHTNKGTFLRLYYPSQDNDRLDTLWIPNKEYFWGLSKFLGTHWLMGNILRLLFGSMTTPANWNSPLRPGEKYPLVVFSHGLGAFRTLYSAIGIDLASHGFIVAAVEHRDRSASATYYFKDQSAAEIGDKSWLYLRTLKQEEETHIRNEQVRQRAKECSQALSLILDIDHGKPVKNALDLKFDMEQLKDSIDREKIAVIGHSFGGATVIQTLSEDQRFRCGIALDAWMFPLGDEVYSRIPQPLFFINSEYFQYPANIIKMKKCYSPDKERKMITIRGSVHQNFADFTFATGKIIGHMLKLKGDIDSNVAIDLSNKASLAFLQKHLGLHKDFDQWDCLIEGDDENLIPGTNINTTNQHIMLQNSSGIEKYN
# Protocol Text: In vitro inhibitory activity towards the enzyme Lp-PLA2 in human serum, [3H]PAF substrate
# Format: biochemical
# Conditions: 10 nM; human serum; read-out: inhibition, %
Write it as a number; the unit % goes unstated.

Reference set, count: 3
CN(C)/N=C/c1nnc(Cn2c(SCc3ccc(F)cc3)nc(=O)c3c2CCC3)n1Cc1ccc(-c2ccc(C(F)(F)F)cc2)cc1
88
O=c1nc(SCc2ccc(F)cc2)n(Cc2nnc(CO)n2Cc2ccc(-c3ccc(C(F)(F)F)cc3)cc2)c2c1CCC2
65
CN(Cc1nnc(Cn2c(SCc3ccc(F)cc3)nc(=O)c3c2CCC3)n1Cc1ccc(-c2ccc(C(F)(F)F)cc2)cc1)C1CC1
77

**Q:** For the record `O=c1nc(SCc2ccc(F)cc2)n(Cc2ncn(Cc3ccc(-c4ccc(C(F)(F)F)cc4)cc3)n2)c2c1CCC2` , what value of inhibition at 0.01 µM is listed for Lp-PLA2 in human serum (Homo sapiens, UniProt Q13093)?
**A:** 59

**Q:** Further, for `CN(C)Cc1cnc(Cn2c(SCc3ccc(F)cc3)nc(=O)c3c2CCC3)n1Cc1ccc(-c2ccc(C(F)(F)F)cc2)cc1` ?
**A:** 75

**Q:** Now try `O=c1nc(SCc2ccc(F)cc2)n(Cc2nnc(CS(=O)(=O)Cc3ccccc3)n2Cc2ccc(-c3ccc(C(F)(F)F)cc3)cc2)c2c1CCC2` .
**A:** 87

* * *

# Measured Target: Lp-PLA2 in human serum (Homo sapiens)
# Construct: from tissue
# Protocol Text: In vitro inhibitory activity towards the enzyme Lp-PLA2 in human serum, [3H]PAF substrate
# Format: biochemical
# Conditions: 100 nM; human serum
# Experimental: The activities of compounds were measured using [^3H] labeled platelet activating factor ([^3H]PAF, Perkinelmer, Lot NET910) as the substrate. The reaction was carried out in a system containing 50 mmol/l HEPES and 150 mmol/l NaCl (pH 7.4) in a total volume of 200 μl. First, 10 μL human plasma and 10 μl DMSO solution of the test compound were added to the system and preincubated for 10 min at 37° C. […] A 100 μl portion of the supernatant was then collected for radioactivity intensity measurement.
Label Criterion met when inhibition at 0.1 µM is at or above 90%; otherwise label Criterion not met.

// below: answered molecules
C=C(OC(C)=O)c1nnc(Cn2c(SCc3ccc(F)cc3)nc(=O)c3c2CCC3)n1Cc1ccc(-c2ccc(C(F)(F)F)cc2)cc1
Criterion met
COC(=O)CN(C)Cc1nnc(Cn2c(SCc3ccc(F)cc3)nc(=O)c3c2CCC3)n1Cc1ccc(-c2ccc(C(F)(F)F)cc2)cc1
Criterion met
CC(C)c1nnc(Cn2c(SCc3ccc(F)cc3)nc(=O)c3c2CCC3)n1Cc1ccc(-c2ccc(C(F)(F)F)cc2)cc1
Criterion met
O=c1nc(SCc2ccc(F)cc2)n(Cc2nnc(CN3CCC(F)(F)C3)n2Cc2ccc(-c3ccc(C(F)(F)F)cc3)cc2)c2c1CCC2
Criterion not met
CN(C)/N=C/c1nnc(Cn2c(SCc3ccc(F)cc3)nc(=O)c3c2CCC3)n1Cc1ccc(-c2ccc(C(F)(F)F)cc2)cc1
Criterion met

**Q:** Given `O=C1NCCN1Cc1nnc(Cn2c(SCc3ccc(F)cc3)nc(=O)c3c2CCC3)n1Cc1ccc(-c2ccc(C(F)(F)F)cc2)cc1` , state whether its inhibition at 0.1 µM is at least 90%.
**A:** Criterion not met

* * *

# Measured Target: Lp-PLA2 in rabbit serum (Oryctolagus cuniculus, UniProt G1SE06)
# Construct: from tissue; host or cells: rabbit serum
# Protocol Text: In vitro inhibitory activity towards the enzyme Lp-PLA2 in rabbit serum, [3H]PAF substrate
# Format: biochemical
# Conditions: 10 μM; rabbit serum
Please mark Y if the recorded inhibition at 10 µM is equal to or greater than 60%, and N if it falls below.

CCOC(=O)N1CCC(N2C(Cn3c(SCc4ccc(F)cc4)nc(=O)c4c3CCC4)=NOC2c2ccc(-c3ccc(C(F)(F)F)cc3)cc2)CC1 (stereo not shown) [Example 22]
Y

**Q:** Does CCN(CC)CCN1C(Cn2c(SCc3ccc(F)cc3)nc(=O)c3c2CCC3)=NOC1c1ccc(-c2ccc(C(F)(F)F)cc2)cc1 (stereo not shown) [Example 24] have a reported inhibition at 10 µM of at least 60%?
**A:** Y

**Q:** CCCC/C=C/N1C(Cn2c(SCc3ccc(F)cc3)nc(=O)c3c2CCC3)=NOC1CCCCCCC (stereo not shown) [Example 18] , same question.
**A:** N

**Q:** Try this compound too: O=c1nc(SCc2ccc(F)cc2)n(CC2=NOC(c3ccc(-c4ccc(C(F)(F)F)cc4)cc3)N2CCN2CCCCC2)c2c1CCC2 (stereo not shown) [Example 20]
**A:** Y

**Q:** Can you check CCCCCCCC1NC(Cn2c(SCc3ccc(F)cc3)nc(=O)c3c2CCC3)=NO1 (stereo not shown) [Example 1] next?
**A:** Y

**Q:** Then O=c1nc(SCc2cccc(F)c2F)n(CC2=NOC(c3ccc(-c4ccc(C(F)(F)F)cc4)cc3)N2CCN2CCCCC2)c2c1CCC2 (stereo not shown) [Example 23] ?
**A:** Y

**Q:** And what about the compound CCN(CC)CCn1c(-c2ccc(-c3ccc(C(F)(F)F)cc3)cc2)cnc1Cn1c(SCc2ccc(F)cc2)nc(=O)c2c1CCC2 [Example 38] ?
**A:** N

* * *

# Measured Target: Lp-PLA2 in rabbit serum (Oryctolagus cuniculus)
# Construct: from tissue; host or cells: rabbit serum
# Sequence (G1SE06 22-423): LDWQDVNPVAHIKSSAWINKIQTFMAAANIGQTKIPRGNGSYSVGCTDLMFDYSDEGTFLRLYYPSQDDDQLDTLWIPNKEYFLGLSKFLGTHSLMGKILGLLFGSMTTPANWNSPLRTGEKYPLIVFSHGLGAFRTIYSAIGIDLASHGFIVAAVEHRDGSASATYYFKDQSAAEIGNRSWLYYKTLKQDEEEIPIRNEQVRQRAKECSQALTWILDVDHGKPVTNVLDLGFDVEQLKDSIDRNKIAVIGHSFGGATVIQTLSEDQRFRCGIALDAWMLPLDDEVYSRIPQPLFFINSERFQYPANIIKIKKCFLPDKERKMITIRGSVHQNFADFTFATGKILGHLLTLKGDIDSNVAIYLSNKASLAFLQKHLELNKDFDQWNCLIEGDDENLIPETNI
# Protocol Text: In vitro inhibitory activity towards the enzyme Lp-PLA2 in rabbit serum, [3H]PAF substrate
# Type: biochemical
# Conditions: 1 μM; rabbit serum
Where inhibition at 1 µM equals or exceeds 30%, the correct label is rule met; where it does not, the label is rule not met.

Check out these entries, answers already filled in.
O=c1nc(SCc2cccc(F)c2F)n(CC2=NOC(c3ccc(-c4ccc(C(F)(F)F)cc4)cc3)N2CCN2CCOCC2)c2c1CCC2 (stereo not drawn)
rule not met
Cc1ccc(-c2ccc(Cn3ccnc3Cn3cc(Cc4cnn(C)c4)c(=O)nc3SCc3ccc(F)cc3)cc2)cc1
rule not met
Cn1cc(Cc2cn(Cc3nc4ccccc4n3Cc3ccc(-c4ccc(C(F)(F)F)cc4)cc3)c(SCc3ccc(F)cc3)nc2=O)cn1
rule met
O=c1nc(SCc2ccc(F)cc2)n(Cc2nnc(C3CC3)n2Cc2ccc(-c3ccc(C(F)(F)F)cc3)cc2)c2c1CCC2
rule met

**Q:** Evaluate CCN(CC)CCN1C(Cn2c(SCc3ccc(F)cc3)nc(=O)c3c2CCC3)=NOC1c1ccc(-c2ccc(C(F)(F)F)cc2)cc1 (stereo not drawn) : inhibition at 1 µM at minimum 30%?
**A:** rule not met

**Q:** Okay, and O=c1nc(SCc2cccc(F)c2F)n(CC2=NOC(c3ccc(-c4ccc(C(F)(F)F)cc4)cc3)N2CCN2CCCCC2)c2c1CCC2 (stereo not drawn) ?
**A:** rule met
